molecular target: Nucleoside diphosphate phosphatase ENTPD5 (Homo sapiens); test: Inhibition of human recombinant ENTPD5 expressed in insect cells assessed as reduction in UDP hydrolysis up to 10 uM incubated for 1 hr in presence of UMP, GTP and ATP by Escherichia coli UMP kinase pyrH catalyzed UMP phosphorylation coupled luciferase assay
observable: inhibition

Completed entries (count: 5):
O=C1NC(=S)NC(=O)C1=Cc1cn(-c2ccccc2)nc1-c1cc2c(ccc3ccccc32)oc1=O = Dose-dependent effect
CCN(CC)c1ccc(C(Nc2ccccn2)c2ccc3cccnc3c2O)cc1 (stereo not drawn) = Dose-dependent effect
COc1cccc(NC(=S)Nc2ccc3nc(-c4ccco4)c(-c4ccco4)nc3c2)c1 = Dose-dependent effect
O=C(NC(=S)Nc1cc(Cl)c(O)c(Cl)c1)c1cc2ccccc2o1 = Dose-dependent effect
O=C(/C=C/c1ccco1)/C=C/c1ccc(-c2ccc(Br)cc2)o1 = Dose-dependent effect

Recorded inhibition (compound `O=C(O)c1cccc(N2N=C(C(F)(F)F)/C(=C/c3ccc(-c4ccc(S(=O)(=O)Nc5nccs5)cc4)o3)C2=O)c1` ): Dose-dependent effect
